system: Pseudomonas aeruginosa; experiment: Antimicrobial activity against Pseudomonas aeruginosa isolate 821 by broth microdilution method; assay type: functional

{"COMPOUND": "O=C(O)c1cn(C2CC2)c2cc(N3CCNCC3)c(F)cc2c1=O", "MIC": "> 32 µg/mL"}
{"COMPOUND": "CO/N=C(\\C(=O)N[C@@H]1C(=O)N2C(C(=O)[O-])=C(C[N+]3(C)CCCC3)CS[C@H]12)c1csc(N)n1 [CEFEPIME]", "MIC": "> 256 µg/mL"}
{"COMPOUND": "C[C@@H](O)[C@H]1C(=O)N2C(C(=O)O)=C(S[C@@H]3CN[C@H](C(=O)N(C)C)C3)[C@H](C)[C@H]12", "MIC": "≥ 32 µg/mL"}
